src = ChEMBL document CHEMBL3091314

- Tested on: AGS
- Method summary: Cytotoxicity against human AGS cells after 48 hrs by MTT assay
- Type: functional, cell-based
Recorded endpoint: pIC50
Keep it numeric: pIC50 is minus log10 of the concentration in mol/L.

Recorded results for 5 compounds are shown here.
INSERT INTO measurements (smiles_structure, recorded_endpoint, endpoint_value) VALUES
  ('COc1ccc(-c2nc(SCc3ccccc3)sc2-c2ccccc2)c(OC)c1OC', 'pIC50', 4.41),
  ('COc1ccc(-c2nc(SCc3ccccc3)sc2-c2ccc([N+](=O)[O-])cc2)c(OC)c1OC', 'pIC50', 4.86),
  ('COc1ccc(-c2nc(SCc3ccccc3)sc2-c2ccc(Cl)cc2)c(OC)c1OC', 'pIC50', 4.80),
  ('COc1ccc(-c2nc(SC)sc2-c2ccc(F)cc2)c(OC)c1OC', 'pIC50', 4.01),
  ('COc1ccc(-c2nc(SC)sc2-c2ccccc2)c(OC)c1OC', 'pIC50', 4.57);

[in] Annotate the compound COc1ccc(-c2nc(SCc3ccccc3)sc2-c2ccc(F)cc2)c(OC)c1OC with its measured pIC50.
[out] 4.74

[in] Annotate the compound COc1ccc(/C=C\c2cc(OC)c(OC)c(OC)c2)cc1O with its measured pIC50.
[out] 7.19
